biological target: E3 ubiquitin-protein ligase RNF126/Serine/threonine-protein kinase RIO2 (Homo sapiens, UniProt Q9BVS4+Q9BV68); test: Molecular glue degradation activity at RNF126/RIOK2 in human MOLT-4 cells assessed as induction protein degradation incubated for 12 hrs by immunoblot analysis; format: cell-based
Sequence (Q9BVS4 whole entry): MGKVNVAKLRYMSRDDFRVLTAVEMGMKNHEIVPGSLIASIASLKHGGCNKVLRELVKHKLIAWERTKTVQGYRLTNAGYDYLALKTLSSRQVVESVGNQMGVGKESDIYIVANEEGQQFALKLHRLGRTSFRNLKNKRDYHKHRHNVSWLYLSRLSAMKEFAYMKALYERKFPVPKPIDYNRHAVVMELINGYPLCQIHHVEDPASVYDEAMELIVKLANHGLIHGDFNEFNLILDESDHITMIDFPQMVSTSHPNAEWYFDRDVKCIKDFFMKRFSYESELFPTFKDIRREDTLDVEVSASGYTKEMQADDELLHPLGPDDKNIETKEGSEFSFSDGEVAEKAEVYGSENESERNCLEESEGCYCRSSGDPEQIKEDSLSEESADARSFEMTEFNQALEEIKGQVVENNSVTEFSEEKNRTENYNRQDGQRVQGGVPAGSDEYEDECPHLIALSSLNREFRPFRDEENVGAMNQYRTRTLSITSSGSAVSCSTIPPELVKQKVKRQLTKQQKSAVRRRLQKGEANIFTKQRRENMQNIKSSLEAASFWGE
Sequence (Q9BV68 whole entry): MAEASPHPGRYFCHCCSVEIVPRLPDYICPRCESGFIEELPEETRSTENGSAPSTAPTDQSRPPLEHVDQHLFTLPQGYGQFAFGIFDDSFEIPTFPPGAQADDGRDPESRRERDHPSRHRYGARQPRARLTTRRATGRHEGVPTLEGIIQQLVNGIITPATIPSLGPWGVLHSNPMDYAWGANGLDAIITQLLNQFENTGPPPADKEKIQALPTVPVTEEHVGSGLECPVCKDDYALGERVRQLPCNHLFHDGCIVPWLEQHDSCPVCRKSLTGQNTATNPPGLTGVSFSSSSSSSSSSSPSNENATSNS
VALUE KIND: DC50 (µM)

COc1ccc(-c2ccc3[nH]c(=O)c4nnn(-c5ccc(N6CCN(C(=O)/C=C/C(=O)c7ccc(OC)c(OC)c7)CC6)c(C(F)(F)F)c5)c4c3c2)cn1: 1.95
COc1ccc(-c2ccc3[nH]c(=O)c4nnn(-c5ccc(N6CCN(C(=O)/C=C/C(=O)c7ccc(Br)cc7)CC6)c(C(F)(F)F)c5)c4c3c2)cn1: 2.18
COc1ccc(-c2ccc3[nH]c(=O)c4nnn(-c5ccc(N6CCN(C(=O)/C=C/C(=O)c7ccc(OC(C)C)cc7)CC6)c(C(F)(F)F)c5)c4c3c2)cn1: 1.07
COc1ccc(-c2ccc3[nH]c(=O)c4nnn(-c5ccc(N6CCN(C(=O)/C=C/C(=O)c7ccccc7OC)CC6)c(C(F)(F)F)c5)c4c3c2)cn1: 0.79
C=CC(=O)N1CCN(c2ccc(-n3nnc4c(=O)[nH]c5ccc(-c6ccc(OC)nc6)cc5c43)cc2C(F)(F)F)CC1: 4.31
COc1ccc(C(=O)/C=C/C(=O)N2CCN(c3ccc(-n4nnc5c(=O)[nH]c6ccc(-c7ccc(OC)nc7)cc6c54)cc3C(F)(F)F)CC2)cc1: 0.69
COc1ccc(-c2ccc3[nH]c(=O)c4nnn(-c5ccc(N6CCN(C(=O)/C=C/C(=O)c7ccc(F)cc7)CC6)c(C(F)(F)F)c5)c4c3c2)cn1: 0.41
COc1ccc(-c2ccc3[nH]c(=O)c4nnn(-c5ccc(N6CCN(C(=O)/C=C/C(=O)c7ccc(C(F)(F)F)cc7)CC6)c(C(F)(F)F)c5)c4c3c2)cn1: 1.03
COc1ccc(-c2ccc3[nH]c(=O)c4nnn(-c5ccc(N6CCN(C(=O)/C=C/C(=O)c7ccccc7F)CC6)c(C(F)(F)F)c5)c4c3c2)cn1: 3.65
COc1ccc(-c2ccc3[nH]c(=O)c4nnn(-c5ccc(N6CCN(C(=O)/C=C/C(=O)c7ccccc7)CC6)c(C(F)(F)F)c5)c4c3c2)cn1: 1.1
COc1ccc(-c2ccc3[nH]c(=O)c4nnn(-c5ccc(N6CCN(C(=O)/C=C/C(=O)c7ccc(F)c(F)c7)CC6)c(C(F)(F)F)c5)c4c3c2)cn1: 0.98
COc1cccc(C(=O)/C=C/C(=O)N2CCN(c3ccc(-n4nnc5c(=O)[nH]c6ccc(-c7ccc(OC)nc7)cc6c54)cc3C(F)(F)F)CC2)c1: 1.05
COc1ccc(-c2ccc3[nH]c(=O)c4nnn(-c5ccc(N6CCN(C(=O)/C=C/C(=O)c7ccc([N+](=O)[O-])cc7)CC6)c(C(F)(F)F)c5)c4c3c2)cn1: 3.8
COc1ccc(-c2ccc3[nH]c(=O)c4nnn(-c5ccc(N6CCN(C(=O)/C=C/C(=O)c7ccc(C)cc7)CC6)c(C(F)(F)F)c5)c4c3c2)cn1: 1.47
COc1ccc(-c2ccc3[nH]c(=O)c4nnn(-c5ccc(N6CCN(C(=O)/C=C/C(=O)c7ccc(OC(F)(F)F)cc7)CC6)c(C(F)(F)F)c5)c4c3c2)cn1: 1.75
COc1ccc(-c2ccc3[nH]c(=O)c4nnn(-c5ccc(N6CCN(C(=O)C7=CCCC7)CC6)c(C(F)(F)F)c5)c4c3c2)cn1: 2.14

Data provenance is ChEMBL document CHEMBL6078724.
